Form field: GI50 (one value per entry).
System: TK-10
Assay info: NCI tumour cell line growth inhibition, 48 h
Calls of active or inactive are those of the source. No stated cut-off is given here; in the data, active = GI50 up to about 1.1 µM and inactive = higher.

Solved cases below.
# Molecule, System tested, GI50
records = [
    ("C[N+]1([O-])C2CCC1CC(OC(=O)C(CO)c1ccccc1)C2 (stereo not drawn)", "TK-10", "> 100 µM (inactive)"),
    ("C/C=C/COc1cc(NC(=S)OC(C)C)ccc1Cl.C/C=C\\COc1cc(NC(=S)OC(C)C)ccc1Cl", "TK-10", "14.9 µM (inactive)"),
    ("Clc1ccc(SC(/C=C/NNC2=NN=C(c3ccccc3)C(c3ccccc3)N2)c2ccccc2)cc1 (stereo not drawn)", "TK-10", "36.5 µM (inactive)"),
    ("O=C1CCCCC2N(C(c3ccccc3)c3ccccc3)CC[C@@]12c1ccccc1.O=C1CCCC[C@H]2N(C(c3ccccc3)c3ccccc3)CC[C@@]12c1ccccc1 (stereo partly drawn)", "TK-10", "> 10 µM (inactive)"),
    ("CCN(CC(COc1ccc2c(c1)[n+]([O-])nc(N)[n+]2[O-])OC(C)=O)C(C)=O (stereo not drawn)", "TK-10", "> 100 µM (inactive)"),
]

# evaluate next
Task item: Reported GI50 for `COc1ccccc1-n1c(NN)nc2ccc(Br)cc2c1=O` : what is it?
Reply: 28.4 µM (inactive)

---

Tested on: LOX IMVI
Assay info: NCI tumour cell line growth inhibition, 48 h
Active and inactive are the calls of the source. No stated cut-off is given here; in the data, active = GI50 up to about 1.1 µM and inactive = higher.
Your answer must be one of the following: yes (active), no (inactive)

Previously resolved entries follow.
# Compound, System tested, Assigned class
rows = [
    ("CC(=O)OCCOCNC(=S)N/N=C(\\C)c1cccs1", "LOX IMVI", "no"),
    ("O=C(NO)c1ccc([N+](=O)[O-])cc1", "LOX IMVI", "no"),
    ("C#CC1=CC(=O)C(OC)=CC1=O", "LOX IMVI", "no"),
    ("C/C=C/C(C#N)(/C=C/c1ccccc1)OP1(=O)OC(c2ccccc2)C(C)N1C (stereo not drawn)", "LOX IMVI", "no"),
    ("N#Cc1c(NC(=S)NC(=O)c2ccccc2)nc2c(c1-c1ccccc1)CCCC2", "LOX IMVI", "no"),
]

Task item: Record lookup: outcome of this test for `Nc1nc2c(-c3ccc([N+](=O)[O-])cc3)nnn2c2ccccc12` ?
Reply: no

Task item: Consider next the compound `CN(C)CCOc1ccc(-c2c(Oc3ccc(Cl)cc3)c(=O)oc3ccccc23)cc1` in the same way.
Reply: no

Task item: Entry to check: `COc1cccc(/C=N/NC(N)=O)c1O`
Reply: no

---

# GI50 annotations
Test system: HCT-116
Assay info: NCI tumour cell line growth inhibition, 48 h
Active and inactive are the calls of the source. Cut-off read from the data, not from the text of the source: active = GI50 up to about 1.1 µM and inactive = higher.

Look over these answered cases.
# Molecule, GI50
records = [
    ("N#CSC1CCCCNC1=O (centres undefined)", "8.45 µM (inactive)"),
    ("COC(=O)C(/C(=N/N)C(=O)Nc1cc(Cl)c(Cl)cc1Cl)c1nc2ccc(Cl)cc2nc1O (centres undefined)", "> 100 µM (inactive)"),
    ("Cc1coc2c1C(=O)C(=O)c1c-2ccc2c1CCCC2(C)C", "1.55 µM (inactive)"),
]

Task item: # returns recorded GI50 (system: HCT-116) for `COC(=O)C1=C(O)c2ccc(Cl)cc2S(=O)(=O)N1C`
Reply: > 100 µM (inactive)

From: ChEMBL document CHEMBL1201862
